B1: GNAI1 (parent)
chain: WIHCFEGVTAIIFCVALSDYDLVL

Variants of: B1
Test: protein stability index of a GFP-peptide fusion (GPS, HEK-293T) (PSI 1-6); higher = more stable;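 also: lentivirally expressed fusions sorted by FACS into six bins by GFP to DsRed ratio, PSI derived from sequencing read proportions per bin multiplied by bin number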
Details: c terminus: a fixed tail appended
For each of the variants below, state its protein stability index.
Enter a number only.

// sample Y20I , its protein stability index was 3.91

// sample C14R , its protein stability index was 4.07

// sample C4N , its protein stability index was 3.76

// sample A16Y , its protein stability index was 4.61

// sample L17V , its protein stability index was 3.19

// sample I11N , its protein stability index was 3.83

// sample V15C , its protein stability index was 3.06

// sample E6F , its protein stability index was 1.87

// sample C14H , its protein stability index was 2.66

// sample E6D , its protein stability index was 2.74

// sample D19G , its protein stability index was 3.1
